molecular target: influenza A virus (IAV) PA-Nter fragment (amino acids 1-209) (Influenza A virus, UniProt P31343); construct: PA-Nter fragment (amino acids 1-209); made in house; test: FRET endonuclease activity assay; type: biochemical; conditions: @ 25 μM; read-out: FRET % reduction of v0
Items are presented alongside their recorded inhibition at 25 µM.
Hi! Could you send only the number? It should be in %, unit omitted.

molecule | units label | inhibition at 25 µM
O=C(O)c1cn(CCc2ccc(O)cc2)c2cc(C3CC3)nn2c1=O [drawing 227] | % | 27

Query string: # input molecule: O=C(O)c1cn(CCc2cccc(Cl)c2)c2cc(C3CC3)nn2c1=O [drawing 224] ; wanted: its inhibition at 25 µM
Result string: 30

Query string: # input molecule: CCOC(=O)c1cn(CCc2ccc(O)cc2)c2cc(C3CC3)nn2c1=O [drawing 223] ; wanted: its inhibition at 25 µM
Result string: 22

---

target: influenza A virus (IAV) PA-Nter fragment (amino acids 1-209) (Influenza A virus, UniProt P31343)
pIC50: −log10 of the molar value.
Entry flag: YES if pIC50 reaches 5; NO if it does not.

Some solved entries appear below for comparison.
compound | cat
O=C(O)c1c[nH]c2nc(NCc3ccccc3)nn2c1=O [drawing 216] | NO
N#Cc1ccc(S(=O)(=O)Nc2nc3c(=O)c(C(=O)O)cn(Cc4ccccc4-c4ccc(Cl)cc4)c3s2)cc1 | YES
O=C(O)c1cn(Cc2ccccc2-c2ccccc2)c2sc(NC3CCCC3)nc2c1=O | YES
COc1ccc(S(=O)(=O)Nc2nc3c(=O)c(C(=O)O)cn(Cc4ccccc4-c4ccccc4)c3s2)cc1 | YES
O=C(O)c1cn(Cc2ccccc2-c2ccccc2)c2sc(NS(=O)(=O)Cc3ccc(Cl)cc3Cl)nc2c1=O | YES

Query string: Could you tell me if the measured pIC50 of "Cc1ccc(C)c(-c2ccccc2Cn2cc(C(=O)O)c(=O)c3nc(O)sc32)c1" reaches 5 or more?
Result string: YES

Query string: Could you tell me if the measured pIC50 of "O=C(O)c1cn(Cc2ccccc2-c2ccccc2)c2sc(NCc3cccc(Cl)c3)nc2c1=O" reaches 5 or more?
Result string: YES

Query string: Could you tell me if the measured pIC50 of "O=C(O)c1cn(Cc2ccccc2-c2ccccc2)c2sc(NS(=O)(=O)c3ccccc3)nc2c1=O" reaches 5 or more?
Result string: YES

Query string: Could you tell me if the measured pIC50 of CC(Nc1nc2c(=O)c(C(=O)O)cn(Cc3ccccc3-c3ccccc3)c2s1)c1ccccc1 (centres unmarked) reaches 5 or more?
Result string: YES

Query string: Could you tell me if the measured pIC50 of "COc1ccc(CNc2nc3c(=O)c(C(=O)O)cn(Cc4ccccc4-c4ccccc4)c3s2)cc1" reaches 5 or more?
Result string: YES

Query string: Could you tell me if the measured pIC50 of "O=C(O)c1cn(Cc2ccccc2-c2ccccc2)c2sc(O)nc2c1=O" reaches 5 or more?
Result string: YES

Query string: Could you tell me if the measured pIC50 of "CC(C)c1cc2[nH]cc(C(=O)O)c(=O)n2n1" reaches 5 or more?
Result string: NO

---

Items are presented alongside their recorded melting point.

query smiles | melting point
CCOC(=O)c1c[nH]c2nc(NCc3ccccc3)nn2c1=O | 275 to 278 °C

Query string: # input compound: "O=C(O)c1cn(CCc2ccc(Cl)cc2)c2cc(C3CC3)nn2c1=O" ; wanted: its melting point
Result string: 220 to 225 °C

Query string: # input compound: "O=C(O)c1cn(CCc2ccc(C(F)(F)F)cc2)c2cc(C3CC3)nn2c1=O" ; wanted: its melting point
Result string: 225 to 230 °C

Query string: # input compound: "CCOC(=O)c1cn(Cc2ccccc2)c2cc(C3CCCC3)nn2c1=O" ; wanted: its melting point
Result string: 148 to 150 °C

Query string: # input compound: "CCOC(=O)Cc1c[nH]c2nc(Nc3ccc(OC(C)C)cc3)nn2c1=O" ; wanted: its melting point
Result string: 235 to 240 °C

---

Please consider the recorded IC50 for influenza A virus (IAV) PA-Nter fragment (amino acids 1-209) (Influenza A virus) in what follows.

molecule | IC50
O=C(O)c1cn(Cc2ccccc2-c2ccccc2)c2sc(NS(=O)(=O)Cc3ccccc3)nc2c1=O | 7.3 µM

Now let's try a different one.
Query string: // lookup IC50 | system=influenza A virus (IAV) PA-Nter fragment (amino acids 1-209) (Influenza A virus) | key= CSC1=NC2C(=O)C(C(=O)O)=CN(Cc3ccccc3-c3ccccc3)C2S1 (centres unmarked)
Result string: 12 µM

---

Items are presented alongside their recorded melting point.

Solved cases (4 shown):
query smiles | melting point
CCOC(=O)c1c[nH]c2nc(NCc3ccc(Br)cc3)nn2c1=O | 286 to 287 °C
O=C(O)c1cn(CCc2cccc(C(F)(F)F)c2)c2cc(C3CC3)nn2c1=O | 200 to 205 °C
O=C(O)c1c[nH]c2nc(NCc3cccc4ccccc34)nn2c1=O | 245 to 250 °C
O=C(O)c1cn(CCc2ccccc2)c2cc(C3CC3)nn2c1=O | 185 to 190 °C

Query string: # input molecule: "COc1ccc(CCn2cc(C(=O)O)c(=O)n3nc(C4CC4)cc23)cc1" ; wanted: its melting point
Result string: 145 to 150 °C

---

Items are presented alongside their recorded IC50.
target: influenza A virus (IAV) PA-Nter fragment (amino acids 1-209) (Influenza A virus)

Solved cases (2 shown):
query smiles | tested on | reading
CS(=O)(=O)Nc1nc2c(=O)c(C(=O)O)cn(Cc3ccccc3-c3ccccc3)c2s1 | influenza A virus (IAV) PA-Nter fragment (amino acids 1-209) (Influenza A virus) | 8.1 µM
Nc1cc2[nH]cc(C(=O)O)c(=O)n2n1 | influenza A virus (IAV) PA-Nter fragment (amino acids 1-209) (Influenza A virus) | 10 µM

Now let's try a different one.
Query string: // lookup IC50 | system=influenza A virus (IAV) PA-Nter fragment (amino acids 1-209) (Influenza A virus) | key= "COCCNc1nc2c(=O)c(C(=O)O)cn(Cc3ccccc3-c3ccccc3)c2s1"
Result string: 9 µM
